Values compiled from PubChem BioAssay AID256.

System: CD2F1 mice, L1210 leukemia ip, survival T/C
protocol text: NCI In Vivo Anticancer Drug Screen. Data for tumor model L1210 Leukemia (intraperitoneal) in CD2F1 (CDF1) mice
conditions used: endpoint: mean survival time; dose: 400.0 mg/kg/injection; schedule: Q04DX003 (ip); vehicle: saline with Tween-80; higher = longer survival
Experimental: The antitumor activity of compounds was measured in mice bearing transplantable tumors. Survival or tumor size were measured and the results are expressed as the measurement made in the treated group (T) divided by the measurement made in the vehicle treated control group (C). The tumor model used in this assay is L1210 Leukemia (intraperitoneal) in CD2F1 (CDF1) mice
Inconclusive results and toxic doses are left out.
Here the recorded T/C is given for each entry.

Worked cases, T/C given:
compound: O=C1OC2CCCCC2c2ccccc21 (configuration not stated)
result: 98 % of control

compound: O=C1c2ccccc2C(=O)c2ccccc21
result: 88 % of control

compound: O=C(NCc1ccccc1)C1C2CCC(C2)C1C(=O)NCc1ccccc1 (configuration not stated)
result: 98 % of control

compound: Cc1cccc(Cl)c1C#N
result: 100 % of control

compound: O=C(NN=C1CCCCC1)c1ccccc1
result: 101 % of control

compound: CCOC(=O)C(C(C)=O)C(=O)c1ccc([N+](=O)[O-])cc1 (configuration not stated)
result: 100 % of control

## Input For O=CN/N=C/c1ccc2c(c1)CCC2 , what is its reported T/C?
## Output 96 % of control
